# measurement target: B-RAF G466V (Homo sapiens, UniProt P15056, G466V)
# Construct: expressed in transfected cells; host or cells: T-Rex 293 cells (Invitrogen #R71007)
# Sequence (P15056 whole entry G466V): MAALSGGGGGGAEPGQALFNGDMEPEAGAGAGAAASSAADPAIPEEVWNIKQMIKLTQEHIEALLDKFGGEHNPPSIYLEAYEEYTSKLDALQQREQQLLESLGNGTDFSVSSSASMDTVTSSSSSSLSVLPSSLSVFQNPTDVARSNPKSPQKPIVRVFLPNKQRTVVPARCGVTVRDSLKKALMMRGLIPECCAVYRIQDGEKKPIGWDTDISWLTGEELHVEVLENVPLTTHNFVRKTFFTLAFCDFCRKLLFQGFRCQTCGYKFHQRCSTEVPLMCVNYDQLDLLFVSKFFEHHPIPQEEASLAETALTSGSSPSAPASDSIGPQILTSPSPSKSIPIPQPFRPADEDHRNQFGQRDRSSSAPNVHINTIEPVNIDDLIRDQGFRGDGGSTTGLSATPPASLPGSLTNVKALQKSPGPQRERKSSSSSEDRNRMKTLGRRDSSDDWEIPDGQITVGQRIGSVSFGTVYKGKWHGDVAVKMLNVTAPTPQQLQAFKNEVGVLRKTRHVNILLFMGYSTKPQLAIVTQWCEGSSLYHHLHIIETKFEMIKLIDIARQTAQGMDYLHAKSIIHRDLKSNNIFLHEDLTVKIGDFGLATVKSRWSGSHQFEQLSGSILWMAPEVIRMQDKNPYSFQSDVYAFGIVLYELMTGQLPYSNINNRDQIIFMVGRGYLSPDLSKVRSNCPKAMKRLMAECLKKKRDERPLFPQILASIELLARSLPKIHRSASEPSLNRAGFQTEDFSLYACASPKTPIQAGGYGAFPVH
# measurement notes: Target protein degradation, assay D: T-Rex 293 cells, HA-BRAF_G466V, 384 well format
# Type: cell-based
# setup conditions: Assay D, T-Rex 293 HA-BRAF_G466V cells, 24 hours, Examples 83-269
reported metric: DC50

compound	DC50
N#Cc1c(NS(=O)(=O)N2CC[C@@H](F)C2)ccc(F)c1Oc1ccc2ncn(-c3cnc(N4CCC(CN5CC6(C5)CN(c5ccc7c(c5)C(=O)N(C5CCC(=O)NC5=O)C7=O)C6)CC4)nc3)c(=O)c2c1 (stereo partly drawn) [Example 133]	1 to 10 nM
N#Cc1c(NS(=O)(=O)N2CC[C@@H](F)C2)ccc(F)c1Oc1ccc2ncn(-c3ccc(N4CCC(CN5CC6(CCC(c7ccc8c(c7)CN([C@H]7CCC(=O)NC7=O)C8=O)CC6)C5)CC4)cc3)c(=O)c2c1 [Example 219]	1 to 10 nM
N#Cc1c(NS(=O)(=O)N2CC[C@@H](F)C2)ccc(F)c1Oc1ccc2ncn(-c3cnc(C4(N5CCN(CC6CCN(c7ccc(C8CCC(=O)NC8=O)cc7F)CC6)CC5)CC4)nc3)c(=O)c2c1 (stereo partly drawn) [Example 106]	1 to 10 nM
N#Cc1c(NS(=O)(=O)N2CC[C@@H](F)C2)ccc(F)c1Oc1ccc2ncn(-c3ccc(N4CCN(CC5CCN(c6ccc7c(c6)CN(C6CCC(=O)NC6=O)C7=O)CC5)CC4)cc3F)c(=O)c2c1 (stereo partly drawn) [Example 87]	> 30 nM
N#Cc1c(NS(=O)(=O)N2CC[C@@H](F)C2)ccc(F)c1Oc1ccc2ncn(-c3ccc(N4CCN(CC5(F)CCN(c6ccc7c(c6)CN([C@H]6CCC(=O)NC6=O)C7=O)CC5)CC4)cc3)c(=O)c2c1 [Example 223]	1 to 10 nM
N#Cc1c(NS(=O)(=O)N2CC[C@@H](F)C2)ccc(F)c1Oc1ccc2ncn(-c3ccc(N4CCC(CN5CCC6(CC5)CCN(c5ccc7c(c5)CN([C@H]5CCC(=O)NC5=O)C7=O)CC6)CC4)cc3)c(=O)c2c1 [Example 228]	1 to 10 nM

The compound listed as N#Cc1c(NS(=O)(=O)N2CC[C@@H](F)C2)ccc(F)c1Oc1ccc2ncn(C3COC4(CCN(C(=O)CC5(O)CCN(c6ccc7c(c6)CN([C@H]6CCC(=O)NC6=O)C7=O)CC5)CC4)C3)c(=O)c2c1 (stereo partly drawn) [Example 180] shows DC50 equal to > 30 nM

The compound listed as CN(c1ccc2c(c1)CN([C@@H]1CCC(=O)NC1=O)C2=O)[C@H]1CC[C@H](N2CCN(c3ccc(-n4cnc5ccc(Oc6c(F)ccc(NS(=O)(=O)N7CC[C@@H](F)C7)c6C#N)cc5c4=O)cc3)CC2)CC1 [Example 229] shows DC50 equal to 1 to 10 nM

The compound listed as N#Cc1c(NS(=O)(=O)N2CC[C@@H](F)C2)ccc(F)c1Oc1ccc2ncn(-c3ccc(N4CCC(CN5CCC(Oc6ccc7c(c6)C(=O)N(C6CCC(=O)NC6=O)C7=O)CC5)CC4)nc3)c(=O)c2c1 (stereo partly drawn) [Example 149] shows DC50 equal to 10 to 30 nM

* * *

# measurement target: B-RAF G466V (Homo sapiens, UniProt P15056, G466V)
# Construct: expressed in transfected cells; host or cells: T-Rex 293 cells (Invitrogen #R71007)
# measurement notes: Target protein degradation, assay D: T-Rex 293 cells, HA-BRAF_G466V, 384 well format
# Type: cell-based
# setup conditions: Assay D, T-Rex 293 HA-BRAF_G466V cells, 24 hours, Examples 83-269
DC50 values, listed per item

Please review the following examples before continuing.
compound	recorded measurement
C[C@H]1CN(CC2CCN(c3ccc4c(c3)CN([C@H]3CCC(=O)NC3=O)C4=O)CC2)CCN1c1ccc(-n2cnc3ccc(Oc4c(F)ccc(NS(=O)(=O)N5CC[C@@H](F)C5)c4C#N)cc3c2=O)cc1	≤ 1 nM
C[C@H]1CC(CN2CCC(c3ccc4c(c3)CN(C3CCC(=O)NC3=O)C4=O)CC2)CCN1c1ccc(-n2cnc3ccc(Oc4c(F)ccc(NS(=O)(=O)N5CC[C@@H](F)C5)c4C#N)cc3c2=O)cc1 (stereo partly drawn)	1 to 10 nM

Switching to the query record.
The compound listed as COc1cc(-n2cnc3ccc(Oc4c(F)ccc(NS(=O)(=O)N5CC[C@@H](F)C5)c4C#N)cc3c2=O)ccc1N1CCN(CC2CCN(c3ccc4c(c3)CN(C3CCC(=O)NC3=O)C4=O)CC2)CC1 (stereo partly drawn) shows DC50 equal to ≤ 1 nM

* * *

Dmax values, listed per item
# measurement target: B-RAF V600E (Homo sapiens, UniProt P15056, V600E)
# Construct: expressed in transfected cells; host or cells: T-Rex 293 cells (Invitrogen #R71007)
# Sequence (P15056 whole entry V600E): as the sequence (P15056 whole entry G466V) above, with V466G, V600E counted along it
# measurement notes: Target protein degradation, assay C: T-Rex 293 cells, HA-BRAF_V600E, 384 well format
# Assay type: cell-based
# setup conditions: T-REx-293, Assay C, T-Rex 293 HA-BRAF_V600E cells, 24 hours, Examples 83-269

Please review the following examples before continuing.
molecule	Dmax
N#Cc1c(NS(=O)(=O)N2CC[C@@H](F)C2)ccc(F)c1Oc1ccc2ncn(-c3ccc(N4CCC5(CCN(CC6CCN(c7ccc8c(c7)C(=O)N(C7CCC(=O)NC7=O)C8=O)CC6)CC5)CC4)nc3)c(=O)c2c1 (some centres unmarked)	35 to 70%
N#Cc1c(NS(=O)(=O)N2CC[C@@H](F)C2)ccc(F)c1Oc1ccc2ncn(-c3ccc(N4CC(CN5CC(c6ccc7c(c6)CN([C@@H]6CCC(=O)NC6=O)C7=O)C5)C4)cc3)c(=O)c2c1	≤ 35%

Switching to the query record.
The molecule listed as CCN(C)S(=O)(=O)Nc1ccc(F)c(Oc2ccc3ncn(-c4ccc(N5CCN(CC6CCN(c7ccc(C8CCC(=O)NC8=O)cc7F)CC6)CC5)cc4)c(=O)c3c2)c1C#N (centres unmarked) shows Dmax equal to 35 to 70%

* * *

# measurement target: B-RAF G466V (Homo sapiens, UniProt P15056, G466V)
# Construct: expressed in transfected cells; host or cells: T-Rex 293 cells (Invitrogen #R71007)
# measurement notes: Target protein degradation, assay D: T-Rex 293 cells, HA-BRAF_G466V, 384 well format
# Assay type: cell-based
# setup conditions: Assay D, T-Rex 293 HA-BRAF_G466V cells, 24 hours, Examples 83-269
# Method: D. T-Rex 293 Cells (384 Well Format) T-Rex 293 cells were purchased from Invitrogen (#R71007), and stably transfected with a pcDNA4/TO_HA-BRAF_G466V construct, using 400 ug Zeocin for selection. […] BRAF intensity is quantified in HCS Studio software (ThermoFisher), using a custom script, exported, analyzed using KNIME, and curve curation is performed in an ELN (Scilligence). Cell toxicity is measured via comparing number of nuclei in PROTAC treated wells to DMSO controls. […]
reported metric: DC50

Please review the following examples before continuing.
molecule	measurement target	DC50
COc1cc(N2CC(CN3CCN(c4ccc(-n5cnc6ccc(Oc7c(F)ccc(NS(=O)(=O)N8CC[C@@H](F)C8)c7C#N)cc6c5=O)cc4)CC3)C2)cc2c1C(=O)N([C@@H]1CCC(=O)NC1=O)C2	B-RAF G466V (Homo sapiens, UniProt P15056, G466V)	0.001 to 0.01 µM
N#Cc1c(NS(=O)(=O)N2CC[C@@H](F)C2)ccc(F)c1Oc1ccc2ncn(-c3ccc(N4CCN(CC5CCN(c6ccc(C7CCC(=O)NC7=O)cn6)CC5)CC4)cc3)c(=O)c2c1 (stereo partly drawn)	B-RAF G466V (Homo sapiens, UniProt P15056, G466V)	0.001 to 0.01 µM
Cn1c(=O)n(C2CCC(=O)NC2=O)c2cccc(N3CC4(CC(CN5CCN(c6ccc(-n7cnc8ccc(Oc9c(F)ccc(NS(=O)(=O)N%10CC[C@@H](F)C%10)c9C#N)cc8c7=O)cc6)CC5)C4)C3)c21 (stereo partly drawn)	B-RAF G466V (Homo sapiens, UniProt P15056, G466V)	0.001 to 0.01 µM

Switching to the query record.
The molecule listed as "N#Cc1c(NS(=O)(=O)N2CC[C@@H](F)C2)ccc(F)c1Oc1ccc2ncn(-c3ccc(N4CCC(CN5CCC6(CCC(c7ccc8c(c7)CN([C@H]7CCC(=O)NC7=O)C8=O)CC6)CC5)CC4)cc3)c(=O)c2c1" shows DC50 equal to 0.001 to 0.01 µM

* * *

# measurement target: B-RAF V600E (Homo sapiens, UniProt P15056, V600E)
# Construct: expressed in transfected cells; host or cells: T-Rex 293 cells (Invitrogen #R71007)
# measurement notes: Target protein degradation, assay C: T-Rex 293 cells, HA-BRAF_V600E, 384 well format
# Assay type: cell-based
# setup conditions: Assay C, T-Rex 293 HA-BRAF_V600E cells, 24 hours, Examples 83-269
reported metric: DC50

Please review the following examples before continuing.
compound	DC50
N#Cc1c(NS(=O)(=O)N2CC[C@@H](F)C2)ccc(F)c1Oc1ccc2ncn(-c3ccc(N4CCC(CN5CC6(C5)CN(c5cccc7c5C(=O)N(C5CCC(=O)NC5=O)C7=O)C6)CC4)nc3)c(=O)c2c1 (stereo partly drawn)	50 to 500 nM
N#Cc1c(NS(=O)(=O)N2CC[C@@H](F)C2)ccc(F)c1Oc1ccc2ncn(-c3ccc(N4CCC5(CC4)CN(c4cccc6c4CN(C4CCC(=O)NC4=O)C6=O)C5)nc3)c(=O)c2c1 (stereo partly drawn)	≤ 5 nM

Switching to the query record.
The compound listed as "N#Cc1c(NS(=O)(=O)N2CC[C@@H](F)C2)ccc(F)c1Oc1ccc2ncn(-c3ccc(N4CCN(CC5CCN(c6ccc7c(c6F)CN([C@H]6CCC(=O)NC6=O)C7=O)CC5)CC4)cn3)c(=O)c2c1" shows DC50 equal to 50 to 500 nM

Source: patent US11957759B1
